B1: Triacylglycerol hydrolase DDHD2, residues 389 to 447; numbered along this chain, O94830 (parent)
chain: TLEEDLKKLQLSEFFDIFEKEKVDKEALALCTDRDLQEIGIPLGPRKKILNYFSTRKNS

Variants of: B1
Experiment: abundance fitness (aPCA) (normalised: wild type 0, dead -1); higher = more abundant; growth selection in yeast, the domain comes from the species named
Settings: Homo sapiens
Catalogue of abundance fitness readings, one per entry.

Known results for variants:
1) TLEEDLKKLQLSEFFDIFEKEKVAKEALALCTDRDLQEIGIPLGPRKKILNYFSTRKNS [D24A]    0.026
2) TLEECLKKLQLSEFFDIFEKEKVDKEALALCTDRDLQEIGIPLGPRKKILNYFSTRKNS [D5C]    -0.033
3) TLEEDLKKLQLSEFFDIFEKEKVDKEALALCTDHDLQEIGIPLGPRKKILNYFSTRKNS [R34H]    0.085

Task: Assign abundance fitness to the following record: TLEEDLKKLQLSEFFDIFEKEKVDKEALALCTDRDLQEIGIPLGPRKKILNPFSTRKNS [Y52P]
Output: -0.313

Task: Assign abundance fitness to the following record: TLEEDLKKLQLSEFFDIFEKEKVDKEALALCTDRDLPEIGIPLGPRKKILNYFSTRKNS [Q37P]
Output: -0.996
